Recorded remaining at 3 h, 10 µM by entry
# experimentalProtocol: Plasma stability, mouse plasma
# testSettings: Balb C, mouse, Li-heparin plasma
Bridge positions count the residues as written; N and C are the ends. Square brackets hold non-standard residues; d marks the D form. Peptide text beside a SMILES is read from it.
assayReadout: remaining at 3 h, 10 µM (%)

[[record]]
molecule = "CC(=O)N1CCC[C@H]1C(=O)N[C@@H](CO)C(=O)N[C@@H](CCCNC(=N)N)C(=O)N[C@@H](CC(C)C)C(=O)N[C@@H](CCC(=O)O)C(=O)N[C@H]1CSSC[C@H](C(=O)N[C@@H](CCCNC(=N)N)C(=O)N[C@@H](CCCNC(=N)N)C(=O)N[C@@H](CC(C)C)C(=O)N[C@H](C(=O)N[C@@H](CCC(=O)O)C(N)=O)[C@@H](C)O)NC(=O)[C@H](CC(C)C)NC(=O)[C@H](CCC(=O)O)NC1=O [SD15807] (Ac-PSRLECEL[dC]RRLTE-NH2; disulfide 6-9)"
assayreadout = "remaining at 3 h, 10 µM"
unitannotation = "%"
obsvalue = 60.9

[[record]]
molecule = "CC(=O)N1CCC[C@H]1C(=O)N[C@@H](CO)C(=O)N[C@@H](CCCNC(=N)N)C(=O)N[C@@H](CC(C)C)C(=O)N[C@H]1CCC(=O)NCCCC[C@@H](C(=O)N[C@@H](CCCNC(=N)N)C(=O)N[C@@H](CCCNC(=N)N)C(=O)N[C@@H](CC(C)C)C(=O)N[C@H](C(=O)N[C@@H](CCC(=O)O)C(N)=O)[C@@H](C)O)NC(=O)[C@H](CC(C)C)NC(=O)[C@H](CCC(=O)O)NC(=O)[C@H](CCC(=O)O)NC1=O [SD15806] (Ac-PSRLEEELKRRLTE-NH2; lactam 5-9)"
assayreadout = "remaining at 3 h, 10 µM"
unitannotation = "%"
obsvalue = 83.1

[[record]]
molecule = "CC(=O)N1CCC[C@H]1C(=O)N[C@@H](CO)C(=O)N[C@@H](CCCNC(=N)N)C(=O)N[C@@H](CC(C)C)C(=O)N[C@@H](CCC(=O)O)C(=O)N[C@H]1CCCCNC(=O)CC[C@@H](C(=O)N[C@@H](CCCNC(=N)N)C(=O)N[C@@H](CC(C)C)C(=O)N[C@H](C(=O)N[C@@H](CCC(=O)O)C(N)=O)[C@@H](C)O)NC(=O)[C@H](CCCNC(=N)N)NC(=O)[C@H](CC(C)C)NC(=O)[C@H](CCC(=O)O)NC1=O [SD15805] (Ac-PSRLEKELRERLTE-NH2; lactam 6-10)"
assayreadout = "remaining at 3 h, 10 µM"
unitannotation = "%"
obsvalue = 78.3


---

# experimentalProtocol: Plasma stability, human plasma
# testSettings: human plasma, 37° C., timepoint 0 h
Bridge positions count the residues as written; N and C are the ends. Peptide text beside a SMILES is read from it.
Recorded Tube 2 (compound concentration) by entry
assayReadout: Tube 2 (compound concentration)

[[record]]
compound = "CC(=O)N[C@@H](CO)C(=O)N[C@@H](CCCNC(=N)N)C(=O)N[C@@H](CC(C)C)C(=O)N[C@@H](CCC(=O)O)C(=O)N[C@H]1CCC(=O)NCCCC[C@@H](C(=O)N[C@@H](CCCNC(=N)N)C(=O)N[C@@H](CC(C)C)C(=O)N[C@H](C(=O)N[C@@H](CCC(=O)O)C(N)=O)[C@@H](C)O)NC(=O)[C@H](CCCNC(=N)N)NC(=O)[C@H](CC(C)C)NC(=O)[C@H](CCC(=O)O)NC1=O [SD15194] (Ac-SRLEEELRKRLTE-NH2; lactam 5-9)"
obsvalue = 2.271

[[record]]
compound = "CC(=O)N1CCC[C@H]1C(=O)N[C@@H](CO)C(=O)N[C@@H](CCCNC(=N)N)C(=O)N[C@@H](CC(C)C)C(=O)N[C@@H](CCC(=O)O)C(=O)N[C@H]1CCCCNC(=O)CC[C@@H](C(=O)N[C@@H](CCCNC(=N)N)C(=O)N[C@@H](CC(C)C)C(=O)N[C@H](C(=O)N[C@@H](CCC(=O)O)C(N)=O)[C@@H](C)O)NC(=O)[C@H](CCCNC(=N)N)NC(=O)[C@H](CC(C)C)NC(=O)[C@H](CCC(=O)O)NC1=O [SD15805] (Ac-PSRLEKELRERLTE-NH2; lactam 6-10)"
obsvalue = 2.777

[[record]]
compound = "CC(=O)N[C@@H](CO)C(=O)N[C@@H](CCCNC(=N)N)C(=O)N[C@@H](CC(C)C)C(=O)N[C@@H](CCC(=O)O)C(=O)N[C@@H](CCC(=O)O)C(=O)N[C@@H](CCC(=O)O)C(=O)N[C@@H](CC(C)C)C(=O)N[C@@H](CCCNC(=N)N)C(=O)N[C@H]1CCCCNC(=O)CC[C@@H](C(N)=O)NC(=O)[C@H]([C@@H](C)O)NC(=O)[C@H](CC(C)C)NC(=O)[C@H](CCCNC(=N)N)NC1=O [SD15193] (Ac-SRLEEELRKRLTE-NH2; lactam 9-13)"
obsvalue = 2.845

[[record]]
compound = "CC(=O)N[C@@H](CO)C(=O)N[C@@H](CCCNC(=N)N)C(=O)N[C@@H](CC(C)C)C(=O)N[C@@H](CCC(=O)O)C(=O)N[C@H]1CCC(=O)NCCCC[C@@H](C(=O)N[C@@H](CCCNC(=N)N)C(=O)N[C@@H](CCCNC(=N)N)C(=O)N[C@@H](CC(C)C)C(=O)N[C@H](C(=O)N[C@@H](CCC(=O)O)C(N)=O)[C@@H](C)O)NC(=O)[C@H](CC(C)C)NC(=O)[C@H](CCC(=O)O)NC1=O [SD15192] (Ac-SRLEEELKRRLTE-NH2; lactam 5-8)"
obsvalue = 2.471


---

# experimentalProtocol: Pharmacokinetic study in mouse, intravenous bolus, plasma LC-MS/MS, non-compartmental analysis
# testSettings: in vivo, iv, C0, normalized to a dose of 1 mg/kg, given 3 mg/kg i.v.
Bridge positions count the residues as written; N and C are the ends. Peptide text beside a SMILES is read from it.
assayReadout: C0

[[record]]
compound = "CC(=O)N1CCC[C@H]1C(=O)N[C@@H](CO)C(=O)N[C@@H](CCCNC(=N)N)C(=O)N[C@@H](CC(C)C)C(=O)N[C@@H](CCC(=O)O)C(=O)N[C@H]1CCC(=O)NCCCC[C@@H](C(=O)N[C@@H](CCCNC(=N)N)C(=O)N[C@@H](CC(C)C)C(=O)N[C@H](C(=O)N[C@@H](CCC(=O)O)C(N)=O)[C@@H](C)O)NC(=O)[C@H](CCCNC(=N)N)NC(=O)[C@H](CC(C)C)NC(=O)[C@H](CCC(=O)O)NC1=O [SD15341] (Ac-PSRLEEELRKRLTE-NH2; lactam 6-10)"
assayreadout = "C0"
obsvalue = "5130 ng/mL"


---

# experimentalProtocol: Plasma stability, mouse plasma
# testSettings: Balb C, mouse, Li-heparin plasma
Bridge positions count the residues as written; N and C are the ends. Peptide text beside a SMILES is read from it.
assayReadout: remaining at 24 h, 10 µM (%)

[[record]]
compound = "CC(=O)N[C@@H](CO)C(=O)N[C@@H](CCCNC(=N)N)C(=O)N[C@@H](CC(C)C)C(=O)N[C@@H](CCC(=O)O)C(=O)N[C@@H](CCC(=O)O)C(=O)N[C@@H](CCC(=O)O)C(=O)N[C@@H](CC(C)C)C(=O)N[C@@H](CCCNC(=N)N)C(=O)N[C@H]1CCCCNC(=O)CC[C@@H](C(N)=O)NC(=O)[C@H]([C@@H](C)O)NC(=O)[C@H](CC(C)C)NC(=O)[C@H](CCCNC(=N)N)NC1=O [SD15193] (Ac-SRLEEELRKRLTE-NH2; lactam 9-13)"
unitannotation = "%"
obsvalue = 39.4


---

Recorded half-life by entry
# experimentalProtocol: Plasma stability, mouse plasma
# testSettings: mouse, plasma, Half-life time, mouse plasma, 37° C., incubation 24 h (triplicates) or 6 h (duplicates)
Bridge positions count the residues as written; N and C are the ends. Square brackets hold non-standard residues; d marks the D form. Peptide text beside a SMILES is read from it.
assayReadout: half-life (h)

[[record]]
compound = "CC(=O)N1CCC[C@H]1C(=O)N[C@@H](CO)C(=O)N[C@@H](CCCNC(=N)N)C(=O)N[C@@H](CC(C)C)C(=O)N[C@@H](CCC(=O)O)C(=O)N[C@H]1CCCCNC(=O)CC[C@@H](C(=O)N[C@@H](CCCNC(=N)N)C(=O)N[C@@H](CC(C)C)C(=O)N[C@H](C(=O)N[C@@H](CCC(=O)O)C(N)=O)[C@@H](C)O)NC(=O)[C@H](CCCNC(=N)N)NC(=O)[C@H](CC(C)C)NC(=O)[C@H](CCC(=O)O)NC1=O [SD15805] (Ac-PSRLEKELRERLTE-NH2; lactam 6-10)"
unitannotation = "h"
limitoperator = "="
obsvalue = 7.29

[[record]]
compound = "CC(=O)N[C@@H](CO)C(=O)N[C@@H](CCCNC(=N)N)C(=O)N[C@@H](CC(C)C)C(=O)N[C@@H](CCC(=O)O)C(=O)N[C@@H](CCC(=O)O)C(=O)N[C@@H](CCC(=O)O)C(=O)N[C@@H](CC(C)C)C(=O)N[C@@H](CCCNC(=N)N)C(=O)N[C@H]1CCCCNC(=O)CC[C@@H](C(N)=O)NC(=O)[C@H]([C@@H](C)O)NC(=O)[C@H](CC(C)C)NC(=O)[C@H](CCCNC(=N)N)NC1=O [SD15193] (Ac-SRLEEELRKRLTE-NH2; lactam 9-13)"
unitannotation = "h"
limitoperator = "="
obsvalue = 18.5

[[record]]
compound = "CC(=O)N[C@@H](CO)C(=O)N[C@@H](CCCNC(=N)N)C(=O)N[C@@H](CC(C)C)C(=O)N[C@@H](CCC(=O)O)C(=O)N[C@H]1CCC(=O)NCCCC[C@@H](C(=O)N[C@@H](CCCNC(=N)N)C(=O)N[C@@H](CC(C)C)C(=O)N[C@H](C(=O)N[C@@H](CCC(=O)O)C(N)=O)[C@@H](C)O)NC(=O)[C@H](CCCNC(=N)N)NC(=O)[C@H](CC(C)C)NC(=O)[C@H](CCC(=O)O)NC1=O [SD15194] (Ac-SRLEEELRKRLTE-NH2; lactam 5-9)"
unitannotation = "h"
limitoperator = ">"
obsvalue = 24

[[record]]
compound = "CC(=O)N1CCC[C@H]1C(=O)N[C@@H](CO)C(=O)N[C@@H](CCCNC(=N)N)C(=O)N[C@@H](CC(C)C)C(=O)N[C@@H](CCC(=O)O)C(=O)N[C@H]1CCC(=O)NCCCC[C@H](C(=O)N[C@@H](CCCNC(=N)N)C(=O)N[C@@H](CC(C)C)C(=O)N[C@H](C(=O)N[C@@H](CCC(=O)O)C(N)=O)[C@@H](C)O)NC(=O)[C@H](CCCNC(=N)N)NC(=O)[C@H](CC(C)C)NC(=O)[C@H](CCC(=O)O)NC1=O [SD15808] (Ac-PSRLEEELR[dK]RLTE-NH2; lactam 6-10)"
unitannotation = "h"
limitoperator = "="
obsvalue = 8.74

